Parameter: inhibition at 10 µM. Scope: all listed entries.
# assayedTarget: 5HT-uptake (Rattus norvegicus)
# Construct: synaptosomes were freshly isolated from areas of rats' brains
# Sequence (P31652 whole entry): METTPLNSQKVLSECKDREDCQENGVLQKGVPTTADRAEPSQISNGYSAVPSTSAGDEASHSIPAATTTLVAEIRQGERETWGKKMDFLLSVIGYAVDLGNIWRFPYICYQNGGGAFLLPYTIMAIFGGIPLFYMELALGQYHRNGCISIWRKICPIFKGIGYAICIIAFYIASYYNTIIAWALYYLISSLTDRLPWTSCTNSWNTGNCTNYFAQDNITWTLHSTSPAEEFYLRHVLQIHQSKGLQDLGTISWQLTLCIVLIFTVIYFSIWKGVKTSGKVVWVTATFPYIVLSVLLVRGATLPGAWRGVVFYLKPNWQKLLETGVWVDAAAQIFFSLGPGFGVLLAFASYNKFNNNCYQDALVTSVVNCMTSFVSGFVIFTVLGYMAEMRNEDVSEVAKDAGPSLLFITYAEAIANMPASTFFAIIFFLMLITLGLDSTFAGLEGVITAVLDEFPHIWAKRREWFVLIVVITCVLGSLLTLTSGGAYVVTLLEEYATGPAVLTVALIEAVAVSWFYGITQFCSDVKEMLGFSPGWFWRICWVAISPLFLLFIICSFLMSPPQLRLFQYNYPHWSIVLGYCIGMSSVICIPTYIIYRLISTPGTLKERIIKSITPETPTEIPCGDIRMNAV
# assay: biochemical
# conditionLabel: read-out: 5HT-uptake [10 μM], % inhibition

Below, 3 compounds whose answers are already recorded.
{"compound": "Cc1cccc(CC2(N(C)C)CCC(NC(=O)CCC(=O)NC(C)c3ccc(F)cc3)CC2)c1 (stereo not shown)", "inhibition at 10 µM": "96%"}
{"compound": "CCOP(=O)(Cc1ccc(NC(=O)CCC(=O)NC2CCC(Cc3cccc(C)c3)(N(C)C)CC2)cc1)OCC (stereo not shown)", "inhibition at 10 µM": "92%"}
{"compound": "Cc1ccc(CCNC(=O)CCC(=O)NC2CCC(Cc3ccc(C)cc3)(N(C)C)CC2)cc1 (stereo not shown)", "inhibition at 10 µM": "92%"}

Query: Could you tell me which inhibition at 10 µM is on file for COc1ccc(CCN(C)C(=O)CCC(=O)NC2CCC(Cc3cccc(C)c3)(N(C)C)CC2)cc1OC (stereo not shown) ?
Reply: 92%

###

# assayedTarget: NA-uptake (Rattus norvegicus)
# assay: biochemical
# conditionLabel: read-out: NA-uptake [10 μM], % inhibition
metric: inhibition at 10 µM (%)
Expressed in %, but write only the number.

Query: Item Cc1ccc(CC2(N(C)C)CCC(NC(=O)CCC(=O)NC(C)C(C)C)CC2)cc1 (stereo not drawn) [Example 105] has what recorded inhibition at 10 µM?
Reply: 90

###

compounds and their reported inhibition at 10 µM
# assayedTarget: 5HT-uptake (Rattus norvegicus)
# Construct: synaptosomes were freshly isolated from areas of rats' brains
# assay: biochemical
# conditionLabel: read-out: 5HT-uptake [10 μM], % inhibition
# output: bare number, implied unit %

Field: example entries. Status: answers known.
{"compound": "Cc1cnc(C(=O)N2CCN(C(=O)CCC(=O)NC3CCC(Cc4ccc(Cl)cc4)(N(C)C)CC3)CC2)cn1 (centres unmarked)", "inhibition at 10 µM (%)": 95}
{"compound": "Cc1cccc(CC2(N(C)C)CCC(NC(=O)CCC(=O)N3CCN(Cc4c(Cl)cccc4Cl)CC3)CC2)c1 (centres unmarked)", "inhibition at 10 µM (%)": 92}

Query: Name the reported inhibition at 10 µM value associated with the compound Cc1cccc(N2CCN(C(=O)CCCC(=O)NC3CCC(Cc4ccccc4)(N(C)C)CC3)CC2)c1C (centres unmarked)
Reply: 95

Query: # repeat for CC1CN(C(=O)CCC(=O)NC2CCC(Cc3ccc(Cl)cc3)(N(C)C)CC2)CC(C)O1 (centres unmarked)
Reply: 92

Query: What do you have for Cc1ccc(CC2(N(C)C)CCC(NC(=O)CCC(=O)N3CCN(c4cccc(C)c4)CC3)CC2)cc1 (centres unmarked) ?
Reply: 96

Query: Entry COCC(Cc1ccccc1)NC(=O)CCC(=O)NC1CCC(Cc2cccc(Cl)c2)(N(C)C)CC1 (centres unmarked) please
Reply: 92

Query: What do we get for Cc1cccc(CC2(N(C)C)CCC(NC(=O)CCC(=O)N3CCC(C(=O)c4ccccc4)CC3)CC2)c1 (centres unmarked) ?
Reply: 98

Query: Another compound: CCOC(=O)C(C)NC(=O)CCC(=O)NC1CCC(Cc2cccc(Cl)c2)(N(C)C)CC1 (centres unmarked)
Reply: 93

###

# assayedTarget: NA-uptake (Rattus norvegicus, UniProt Q63380)
# Sequence (Q63380 1-617): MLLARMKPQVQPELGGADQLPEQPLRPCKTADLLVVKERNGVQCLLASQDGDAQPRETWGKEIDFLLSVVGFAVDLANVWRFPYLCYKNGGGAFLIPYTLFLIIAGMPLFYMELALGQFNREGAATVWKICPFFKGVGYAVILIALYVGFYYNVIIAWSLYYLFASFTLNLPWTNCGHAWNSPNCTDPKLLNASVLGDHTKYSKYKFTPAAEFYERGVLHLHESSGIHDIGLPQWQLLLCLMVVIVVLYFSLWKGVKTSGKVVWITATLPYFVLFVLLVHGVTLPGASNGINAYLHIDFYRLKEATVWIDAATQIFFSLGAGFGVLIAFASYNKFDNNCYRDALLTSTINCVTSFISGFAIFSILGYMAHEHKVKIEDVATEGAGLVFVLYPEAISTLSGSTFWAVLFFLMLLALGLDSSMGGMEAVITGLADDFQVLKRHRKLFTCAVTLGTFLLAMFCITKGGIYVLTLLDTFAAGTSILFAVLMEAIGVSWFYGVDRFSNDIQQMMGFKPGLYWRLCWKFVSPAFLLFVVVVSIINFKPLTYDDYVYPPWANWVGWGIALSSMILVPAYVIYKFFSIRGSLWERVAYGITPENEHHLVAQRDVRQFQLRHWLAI
# assay: biochemical
# conditionLabel: read-out: NA-uptake [10 μM], % inhibition
Met means recorded inhibition at 10 µM is 90% or above; Not met means it is below 90%.

Consider the worked cases shown below.
{"molecule": "COc1ccc(CN2CCN(C(=O)CCC(=O)NC3CCC(Cc4cccc(C)c4)(N(C)C)CC3)CC2)cc1F (centres unmarked)", "discreteLabel": "Met"}
{"molecule": "COc1ccc(N2CCN(C(=O)CCC(=O)NC3CCC(Cc4ccc(C)cc4)(N(C)C)CC3)CC2)cc1 (centres unmarked)", "discreteLabel": "Met"}
{"molecule": "Cc1cccc(N2CCN(C(=O)CCCC(=O)NC3CCC(Cc4ccccc4)(N(C)C)CC3)CC2)c1C (centres unmarked)", "discreteLabel": "Met"}
{"molecule": "CCN(Cc1ccncc1)C(=O)CCC(=O)NC1CCC(Cc2ccc(Cl)cc2)(N(C)C)CC1 (centres unmarked)", "discreteLabel": "Met"}
{"molecule": "Cc1cccc(CC2(N(C)C)CCC(NC(=O)CCC(=O)NC(C)c3ccc(F)cc3)CC2)c1 (centres unmarked)", "discreteLabel": "Met"}

Query: Confirm if inhibition at 10 µM reported for the molecule COc1ccccc1N1CCN(C(=O)CCC(=O)NC2CCC(Cc3ccc(Cl)cc3)(N(C)C)CC2)CC1 (centres unmarked) is 90% or above.
Reply: Not met

Query: Same read-out for CN(C)C1(Cc2ccc(Cl)cc2)CCC(NC(=O)CCC(=O)NCc2cccc3ccccc23)CC1 (centres unmarked) ?
Reply: Not met

Query: Same question, CC(CCc1ccccc1)NC(=O)CCC(=O)NC1CCC(Cc2ccc(Cl)cc2)(N(C)C)CC1 (centres unmarked) this time
Reply: Met

Query: Likewise for CCOC(=O)C(C)NC(=O)CCC(=O)NC1CCC(Cc2cccc(Cl)c2)(N(C)C)CC1 (centres unmarked) ?
Reply: Met
